Test: Maximum tolerated dose (MTD) of wortmannin formulations in non-tumor-bearing mice
Settings: mouse, in vivo, other: injected; NOD/SCID mice; mg/kg of wortmannin, in cremophor solution or encapsulated in nanoparticle (2% w/w)
measurement_type: MTD (mg/kg)
Give a bare numeral; the unit mg/kg is implied.

// returns reported MTD for input COC[C@H]1OC(=O)c2coc3c2[C@@]1(C)C1=C(C3=O)[C@@H]2CCC(=O)[C@@]2(C)C[C@H]1OC(C)=O
0.7

###

Assay: Maximum tolerated dose (MTD) of wortmannin formulations in non-tumor-bearing mice
Conditions: mouse, in vivo, other: injected; CD1 (White) mice; mg/kg of wortmannin, in cremophor solution or encapsulated in nanoparticle (2% w/w)
measurement_type: MTD

// returns reported MTD for input COC[C@H]1OC(=O)c2coc3c2[C@@]1(C)C1=C(C3=O)[C@@H]2CCC(=O)[C@@]2(C)C[C@H]1OC(C)=O [Wortmannin, wortmannin]
0.7 mg/kg

###

Assay: Maximum tolerated dose (MTD) of wortmannin formulations in non-tumor-bearing mice
Settings: mouse, in vivo, other: injected; CB6F1 (Brown) mice; mg/kg of wortmannin, in cremophor solution or encapsulated in nanoparticle (2% w/w)
measurement_type: MTD (mg/kg)
Give a bare numeral; the unit mg/kg is implied.

// returns reported MTD for input COC[C@H]1OC(=O)c2coc3c2[C@@]1(C)C1=C(C3=O)[C@@H]2CCC(=O)[C@@]2(C)C[C@H]1OC(C)=O
0.5

###

Test: Maximum tolerated dose (MTD) of wortmannin formulations in non-tumor-bearing mice
Settings: mouse, in vivo, other: injected; C57BL/6 (Black) mice; mg/kg of wortmannin, in cremophor solution or encapsulated in nanoparticle (2% w/w)
measurement_type: MTD (mg/kg)
Give a bare numeral; the unit mg/kg is implied.

// returns reported MTD for input COC[C@H]1OC(=O)c2coc3c2[C@@]1(C)C1=C(C3=O)[C@@H]2CCC(=O)[C@@]2(C)C[C@H]1OC(C)=O
0.7
